# Tgt: human MRGPRD (Homo sapiens, UniProt Q8TDS7)
# Sequence (Q8TDS7 whole entry): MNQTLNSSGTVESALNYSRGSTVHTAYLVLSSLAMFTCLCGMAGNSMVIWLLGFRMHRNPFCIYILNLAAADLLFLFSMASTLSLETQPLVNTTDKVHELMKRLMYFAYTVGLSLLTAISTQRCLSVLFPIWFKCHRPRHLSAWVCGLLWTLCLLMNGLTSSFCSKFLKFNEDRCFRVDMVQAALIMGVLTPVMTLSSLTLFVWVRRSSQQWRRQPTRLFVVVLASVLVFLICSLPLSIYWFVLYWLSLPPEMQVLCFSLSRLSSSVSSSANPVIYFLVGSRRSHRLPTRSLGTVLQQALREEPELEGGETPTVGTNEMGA
# Procedure Summary: MRGPRD antagonist activity, IP-One HTRF assay in CHO cells stably expressing human MRGPRD (versus 100 μM β-Alanine agonist)
pIC50: −log10 of the molar value.
Provide the recorded pIC50 for the entries that follow.

Could you please provide reported pIC50 for Cc1cc(-c2ccccc2)ccc1-n1nnc(C(=O)Nc2ccncc2)c1C1CC1 [Compound 7-257] ? Thanks! 6.00 to 6.30

Give the measured pIC50 for O=C(Nc1ccncc1)c1nnn(-c2cccc(-c3cccc(Cl)c3)c2)c1C1CC1 [Compound 7-324] 5.52 to 6.00

Annotate the compound O=C(Nc1ccncc1)c1nnn(-c2ccc(-c3cn[nH]c3)cc2)c1C1CC1 [Compound 7-173] with its measured pIC50. 5.52 to 6.00

State its pIC50: O=C(Nc1ccncc1)c1nnn(-c2ccc(-c3ccc(C4CCC4)cc3)cc2)c1C1CC1 [Compound 7-127] 6.00 to 6.30

Tell me measured pIC50 for Cc1nn(C)cc1-c1cccc(-n2nnc(C(=O)Nc3ccncc3)c2C2CC2)c1 [Compound 7-316] please. 5.52 to 6.00

Retrieve pIC50 measured for CC(C)c1c(C(=O)Nc2cccc(C#N)c2)nnn1-c1ccc(-c2cnn(C)c2)cc1 [Compound 17-30] and print it. 6.00 to 6.30
